// values below are reported z-score
- target-entity: NADPH oxidase 4 (Homo sapiens)
- assay-info: NOX4-dependent H2O2 signal modulators, primary screen, NOX inhibitor project, cell-based, HEK293-NOX4, tetracycline-induced, Amplex Red fluorescence (AID 1160)
- condition-set: 45 min, higher = more signal, called active from +8 up or from −8 down
Calls of active or inactive are those of the source.

compound: O=C1CCCC2OC12C(O)CCc1ccccc1 (stereo unspecified)
z-score: -0.142 (inactive)
--
compound: COCCNC(=O)OCC1CCCC2(CC(OC(=O)NCCc3ccc(F)cc3)CC(CCC(=O)N[C@@H](C)C(=O)OC)O2)O1 (stereo partly specified)
z-score: 0.948 (inactive)
--
compound: C[C@@H](c1ccccc1)N1C(=O)[C@H]2[C@H]3[C@H](O)[C@H](O)CC(=NNC(=O)OCc4ccccc4)[C@H]3CC[C@H]2C1=O
z-score: 1.08 (inactive)
--
compound: CC(C)(C)N1C(=O)[C@H]2[C@H]3[C@H](O)[C@H](O)CC(=NOCc4ccccc4)[C@@H]3CC[C@H]2C1=O
z-score: 0.413 (inactive)
--
compound: CN1C(=O)C2C=CC(C(O)c3ccc(I)cc3)N(NC(=O)OC(C)(C)C)C2C1=O (stereo unspecified)
z-score: -0.982 (inactive)
--
compound: CCc1cc2c(nc1CC)CCN(CCC(C)=NO[C@@H](C)c1cc(-c3c(C)cc(C)cc3C)no1)C2
z-score: -0.321 (inactive)
--
compound: CCOC(=O)NN=C1C[C@@H](O)[C@@H](O)[C@@H]2[C@@H]3C(=O)N(C[C@@H]4CCCO4)C(=O)[C@@H]3CC[C@@H]12
z-score: 0.111 (inactive)
--
compound: CCOC(=O)[C@H](Cc1ccccc1)NC(=O)CCC1CC(OC(=O)NCc2ccc3c(c2)OCO3)CC2(CCCC(COC(=O)NCC3CCCCC3)O2)O1 (stereo partly specified)
z-score: 0.737 (inactive)
--
compound: Cn1c(=O)n2n(c1=O)[C@H]1[C@H](O)[C@@H]3O[C@@H]3C(=NOC[C@@H](O)COCc3ccco3)[C@H]1CC2
z-score: 0.733 (inactive)
--
compound: COC(=O)[C@H](C)NC(=O)CCC1CC(OC(=O)NCCc2ccc(F)cc2)CC2(CCCC(COC(=O)NCC(c3ccccc3)c3ccccc3)O2)O1 (stereo partly specified)
z-score: 0.0541 (inactive)
--
compound: COC(=O)[C@@]1(Cc2ccccc2)[C@H]2c3cc(C(=O)N4CCCC4)n(Cc4ccccn4)c3C[C@H]2CN1C(=O)c1ccccc1
z-score: -1.83 (inactive)
--
compound: COC(=O)[C@@H]1CC[C@H](C)[C@@H](c2ccc(C)cc2)N1C(=O)c1ccc(C=NOC(C)CN2CCCCc3nc(C)c(C)cc32)cc1 (stereo partly specified)
z-score: -1.62 (inactive)
--
compound: COCCCNC(=O)[C@]1(Cc2ccccc2)N=C(c2ccc(OCCCO)cc2)O[C@@H]1c1ccccc1
z-score: 0.654 (inactive)
--
compound: Cc1ccc(S(=O)(=O)N[C@@H]2COC(=O)[C@H](C)COC(=O)CC=C[C@H]2C)cc1
z-score: 0.174 (inactive)
--
compound: C=C(/C(=C/C[C@H](OC(C)=O)c1ccc(OCCO)cc1)c1cnc2ccccc2c1)C(C)C
z-score: -0.569 (inactive)
--
compound: CCCCCN1CC=CC23O[C@@H]4C=CCOC(=O)[C@@H]4[C@H]2C(=O)N(CCCCCCO)[C@@H]3C1=O (stereo partly specified)
z-score: -0.482 (inactive)
